assay: Solubility measurements by gravimetric method in solvents at 23° C. and 50° C.; format: physicochemical; settings: MeOAc:MeOH (1:1), 50 °C, organic solvent or mixture, thermodynamic from solid, MeOAc:MeOH (1:1), 50° C.; read-out: Solubility
Measured metric: solubility at 2 days (mg/mL)
Just the number in mg/mL, nothing appended.

Report solubility at 2 days for O=C(c1ccc(NS(=O)(=O)c2cccc3cccnc23)cc1)N1CCN(CC2CC2)CC1 [Form A, hemisulfate sesquihydrate] please.
340

---

assay: Solubility measurements by gravimetric method in solvents at 23° C. and 50° C.; type: physicochemical; details: acetone:water (8:2), 23 °C, organic solvent or mixture, thermodynamic from solid, acetone:water (8:2), 23° C.; read-out: Solubility
Measured metric: solubility at 2 days (mg/mL)
// note: answer is a bare numeric in mg/mL

State the recorded solubility at 2 days for this entry: O=C(c1ccc(NS(=O)(=O)c2cccc3cccnc23)cc1)N1CCN(CC2CC2)CC1 [Form A, hemisulfate sesquihydrate]
5
